# TARGET OR TEST SYSTEM: T1, Duffy Antigen Receptor for Chemokines (DARC) (human) (UniProt Q16570)
# T1 sequence (looked up): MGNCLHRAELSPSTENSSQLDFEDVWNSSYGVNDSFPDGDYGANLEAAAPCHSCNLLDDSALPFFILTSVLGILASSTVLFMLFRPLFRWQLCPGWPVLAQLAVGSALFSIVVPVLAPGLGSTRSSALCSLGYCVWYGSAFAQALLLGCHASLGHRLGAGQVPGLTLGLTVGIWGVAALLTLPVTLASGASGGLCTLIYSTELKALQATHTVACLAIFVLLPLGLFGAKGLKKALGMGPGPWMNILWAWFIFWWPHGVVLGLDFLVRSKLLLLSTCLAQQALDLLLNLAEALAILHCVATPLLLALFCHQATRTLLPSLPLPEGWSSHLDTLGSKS
# PROCEDURE DETAILS: estimated ka for binding to red blood cells divided by average inhibitory ED50 (THP-1 migration)
Bridge positions count the residues as written; N and C are the ends. Square brackets hold non-standard residues; d marks the D form. Ends that are not written are not given here.
MEASURED ENDPOINT: Duffy selectivity

1. WVQ [Peptide 3(10-12)[MCP-1], i.e., WVQ]
2. [dC][dQ][dV][dW][dK][dQ][dK][dP][dD][dA][dC] (disulfide 1-11 (inferred); not fully specified; printed as -CQVWKQKPDAC--) [CRD-Cys13pep3[3-12]]
3. EICADP [peptide 3(1-6)[MCP-1]]
Your job: order these 3 records by Duffy selectivity, ascending. Thanks in advance for listing the labels in the requested order.
3, 2, 1
